Tested on: GM-6114
Test: MTT assay, cytotoxicity on normal fibroblasts
Format: cell-based
Details: human, 48 h, 10 µM
Readout Label: Mean Growth Percentage (%)
Unit % implied. Number only.

Record excerpt, results attached:
CCOC(=O)c1c(NC(=O)c2ccc(Cl)cc2)nn(C)c1Nc1ccccc1 : 72.99
CCOC(=O)c1c(NC(=O)c2cc(OC)c(OC)c(OC)c2)nn(C)c1Nc1ccccc1 : 57.94
COc1ccc(/C=N/NC(=O)c2c(Nc3ccccc3)nn(C)c2N)cc1OC [12b] : 99.78

The measured Mean Growth Percentage that COc1ccc(/C=N/NC(=O)c2c(N)n[nH]c2Nc2ccccc2)cc1OC [10b] showed for GM-6114 is 107.36

The measured Mean Growth Percentage that COc1ccc(/C=N/NC(=O)c2c(Nc3ccccc3)nn(C)c2N)cc1Oc1ccccc1 [12c] showed for GM-6114 is 104.08

The measured Mean Growth Percentage that COc1ccc(/C=N/NC(=O)c2c(Nc3ccccc3)nn(CC(O)c3ccccc3)c2N)cc1OCc1ccccc1 (stereo not drawn) [13d] showed for GM-6114 is 95.39

Cited source for all entries: paper PMC11083148
